- targetEntity: Estrogen-related receptor gamma (Homo sapiens, UniProt P62508)
- Sequence (P62508 whole entry): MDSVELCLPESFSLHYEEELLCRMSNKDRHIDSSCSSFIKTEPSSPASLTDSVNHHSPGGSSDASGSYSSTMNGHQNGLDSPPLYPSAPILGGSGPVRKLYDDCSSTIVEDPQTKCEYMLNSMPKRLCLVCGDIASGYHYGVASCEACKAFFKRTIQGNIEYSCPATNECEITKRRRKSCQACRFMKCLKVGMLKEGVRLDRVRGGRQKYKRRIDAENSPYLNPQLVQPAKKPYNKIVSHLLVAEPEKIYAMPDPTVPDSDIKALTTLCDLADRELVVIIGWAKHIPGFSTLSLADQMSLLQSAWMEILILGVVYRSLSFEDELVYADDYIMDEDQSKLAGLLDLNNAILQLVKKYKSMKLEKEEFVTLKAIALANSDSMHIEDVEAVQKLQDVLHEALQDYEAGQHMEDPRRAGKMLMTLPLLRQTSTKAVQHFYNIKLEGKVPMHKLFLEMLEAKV
pIC50: −log10 of the molar value.
parameter: pIC50

Dear colleague, I am looking for the recorded pIC50 of the following compound: CN1CC[C@@H](N2C(=O)S/C(=C\c3ccc4c(cnn4Cc4ccc(Cl)cc4C(F)(F)F)c3)C2=O)[C@H](F)C1
< 5.00

====

- procedureText: Cmax in […] chronic ob/ob model at 3 mg/kg, po qd for 28 days measured on day 28 post last dose
- Type: ADME, organism-based
- Design: dose 3 mg/kg, route oral
- conditionNotes: in vivo
parameter: Cmax
Dear colleague, please send the value followed by its unit.

I'd like to know its Cmax. The compound in question is CN1CC[C@@H](N2C(=O)S/C(=C\c3ccc4c(cnn4Cc4ccc(Cl)cc4C(F)(F)F)c3)C2=O)[C@H](F)C1
0.223 µg/mL

====

- procedureText: Terminal half life in CD-1 mouse at 20 mg/kg administered via oral gavage by LC-MS analysis
- Type: ADME, organism-based
- conditionNotes: in vivo, read-out: beta t1/2 (converted)
parameter: half-life (h)
Please state the figure in h; there is no need to write the unit.

I'd like to know its half-life. The compound in question is CN1CC[C@@H](N2C(=O)S/C(=C\c3ccc4c(cnn4Cc4ccc(Cl)cc4C(F)(F)F)c3)C2=O)[C@H](F)C1
10.6

====

Item-by-item account of pIC50
- targetEntity: Steroid hormone receptor ERR1 (Homo sapiens, UniProt P11474)
- Sequence (P11474 whole entry): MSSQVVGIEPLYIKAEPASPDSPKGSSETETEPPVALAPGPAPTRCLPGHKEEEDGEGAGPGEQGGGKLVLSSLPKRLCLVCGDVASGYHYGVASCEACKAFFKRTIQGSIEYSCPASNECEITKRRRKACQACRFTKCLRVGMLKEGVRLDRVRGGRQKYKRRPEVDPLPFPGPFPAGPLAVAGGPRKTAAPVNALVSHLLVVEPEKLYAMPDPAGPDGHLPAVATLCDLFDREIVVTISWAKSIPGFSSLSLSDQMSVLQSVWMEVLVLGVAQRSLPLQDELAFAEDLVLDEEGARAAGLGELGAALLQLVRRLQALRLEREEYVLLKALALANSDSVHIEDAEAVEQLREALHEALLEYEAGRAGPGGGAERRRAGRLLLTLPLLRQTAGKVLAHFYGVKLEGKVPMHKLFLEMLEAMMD
The value called pIC50 is obtained by taking minus log10 of the concentration in mol/L.

{"columns": ["compound", "parameter", "measurement"],
 "data": [
  ["CN(C)S(=O)(=O)NC(=O)CN1C(=O)S/C(=C\\c2ccc3c(cnn3Cc3ccc(Cl)cc3C(F)(F)F)c2)C1=O", "pIC50", 7.64]
]}

Any idea what its pIC50 is? The compound is C[C@H](N)CN1C(=O)S/C(=C\c2ccc3c(cnn3Cc3ccc(Cl)cc3C(F)(F)F)c2)C1=O
7.62

Record request: pIC50 value, item O=C1S/C(=C\c2ccc3c(cnn3Cc3ccc(Cl)cc3C(F)(F)F)c2)C(=O)N1[C@@H]1CCNC[C@H]1O (relative stereo)
7.60

Query: pIC50; subject: CN1CCC(N2C(=O)S/C(=C\c3ccc4c(cnn4Cc4ccc(Cl)cc4C(F)(F)F)c3)C2=O)CC1
7.72

====

- targetEntity: Steroid hormone receptor ERR1 (Homo sapiens)
- Sequence (P11474 whole entry): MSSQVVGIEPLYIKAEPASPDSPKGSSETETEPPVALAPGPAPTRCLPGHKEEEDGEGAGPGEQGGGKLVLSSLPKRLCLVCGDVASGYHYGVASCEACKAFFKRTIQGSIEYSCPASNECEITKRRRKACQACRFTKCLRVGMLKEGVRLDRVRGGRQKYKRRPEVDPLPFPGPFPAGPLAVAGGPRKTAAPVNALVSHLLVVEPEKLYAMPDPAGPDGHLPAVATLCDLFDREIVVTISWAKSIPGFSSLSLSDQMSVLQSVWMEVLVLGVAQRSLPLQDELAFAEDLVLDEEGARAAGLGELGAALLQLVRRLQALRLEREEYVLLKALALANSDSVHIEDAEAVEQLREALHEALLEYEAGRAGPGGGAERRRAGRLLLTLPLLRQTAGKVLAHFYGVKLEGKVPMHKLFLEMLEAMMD
Reported log10 IC50 by item:
On a log10 scale: recorded IC50, unit nM.

{"columns": ["molecule", "measurement"],
 "data": [
  ["CN1CC[C@H](N2C(=O)S/C(=C\\c3ccc4c(cnn4Cc4ccc(Cl)cc4C(F)(F)F)c3)C2=O)[C@@H](F)C1", 1.34],
  ["Cc1nn(Cc2ccc(Cl)cc2C(F)(F)F)c2ccc(/C=C3\\SC(=O)N(CC(=O)NS(=O)(=O)N4CCCC4)C3=O)cc12", 1.73],
  ["O=C1S/C(=C\\c2ccc3c(cnn3Cc3ccc(Cl)cc3C(F)(F)F)c2)C(=O)N1[C@@H]1CCNC[C@H]1F (relative stereo)", 1.53],
  ["N[C@@H](CO)CN1C(=O)S/C(=C\\c2ccc3c(cnn3Cc3ccc(Cl)cc3C(F)(F)F)c2)C1=O", 1.36],
  ["O=C(O)CN1C(=O)S/C(=C\\c2ccc3c(cnn3Cc3ccc(Cl)cc3C(F)(F)F)c2)C1=O", 0.95],
  ["O=C(O)C1CCC(N2C(=O)S/C(=C\\c3ccc4c(cnn4Cc4ccc(Cl)cc4C(F)(F)F)c3)C2=O)CC1 (stereo not drawn)", 1.08]
]}

I am curious: what log10 IC50 value has been reported for O=C1S/C(=C\c2ccc3c(cnn3Cc3ccc(Cl)cc3C(F)(F)F)c2)C(=O)N1CCN1CCCC1 ?
1.23

Give the measured log10 IC50 of CN1CCC[C@H]1CN1C(=O)S/C(=C\c2ccc3c(cnn3Cc3ccc(Cl)cc3C(F)(F)F)c2)C1=O .
0.70
